# Lookup of reported pIC50 keyed by entry
target: UniProt P51684; assay: Migration (chemotaxis) assay, hCCR6-transfected Ba/F3 cells toward CCL20; settings: hCCR6-transfected Ba/F3 cells in human serum; recombinant human CCL20 10 nM; 37° C. 45 minutes; read-out: Potency (IC50 value in the migration assay)
pIC50: −log10 of the molar value.

Would you please look over these solved cases?
COMPOUND	pIC50
NC(=O)c1c[nH]c2ccc(-c3ccc(S(=O)(=O)N4CCC(Nc5ccc(C(F)(F)F)cn5)CC4)cc3)cc12 [Example 1.080]	7.00 to 8.30
O=C1COc2cc(-c3ccc(S(=O)(=O)N4CCC(Nc5ccc(C(F)(F)F)cn5)CC4)cc3)ccc2N1 [Example 1.074]	7.00 to 8.30
N#Cc1c(N)[nH]c2ccc(-c3ccc(S(=O)(=O)[C@H]4CC[C@H](Nc5ccc(C(F)(F)F)cn5)CC4)cc3)cc12 [Example 1.070]	> 8.30

Could you now look at the following compound, please?
Q: Item NC(=O)C1CCCN(c2ccc(S(=O)(=O)N3CCC(Nc4ccc(C(F)(F)F)cn4)CC3)cc2)C1 (stereo not shown) [Example 1.230] has what recorded pIC50?
A: 7.00 to 8.30

----------
Listed here: items and their measured IC50.
Biological target: human CCR6 (Homo sapiens, UniProt P51684)
Sequence (P51684 1-374): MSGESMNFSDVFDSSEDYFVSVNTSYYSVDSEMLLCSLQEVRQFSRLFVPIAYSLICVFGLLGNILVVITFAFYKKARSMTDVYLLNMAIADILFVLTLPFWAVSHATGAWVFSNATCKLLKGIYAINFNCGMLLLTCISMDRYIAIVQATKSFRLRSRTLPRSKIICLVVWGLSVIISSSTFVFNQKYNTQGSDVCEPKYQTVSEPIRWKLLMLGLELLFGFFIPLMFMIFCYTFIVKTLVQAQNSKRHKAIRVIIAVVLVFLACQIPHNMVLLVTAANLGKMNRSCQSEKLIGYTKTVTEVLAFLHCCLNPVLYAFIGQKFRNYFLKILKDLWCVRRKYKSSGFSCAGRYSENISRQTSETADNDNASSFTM
Assay: Migration (chemotaxis) assay, hCCR6-transfected Ba/F3 cells toward CCL20
Details: hCCR6-transfected Ba/F3 cells in human serum; recombinant human CCL20 10 nM; 37° C. 45 minutes; read-out: Potency (IC50 value in the migration assay)

// below: answered compounds
COMPOUND	MEASURE_NAME	TEST_RESULT
CC(=O)NCC1CCN(c2ccc(S(=O)(=O)N3CCC(Nc4ccc(C(F)(F)F)cn4)CC3)cc2)CC1	IC50	5 to 100 nM
O=S(=O)(c1ccc(-c2ccc3c(c2)NCCO3)cc1)N1CCC(Nc2ccc(C(F)(F)F)cn2)CC1	IC50	5 to 100 nM
Cc1c(-c2ccc(S(=O)(=O)N3CCC(Nc4ccc(C(F)(F)F)cn4)CC3)cc2)cnc2[nH]ccc12	IC50	< 5 nM

Q: Given the compound CNC(=O)CC1CCN(c2ccc(S(=O)(=O)N3CCC(Nc4ccc(C(F)(F)F)cn4)CC3)cc2)CC1 , what is its reported IC50?
A: 5 to 100 nM

Q: I am curious: what IC50 value has been reported for CC(=O)N1Cc2ccc(-c3ccc(S(=O)(=O)N4CCC(Nc5ccc(C(F)(F)F)cn5)CC4)cc3)cc2C1 ?
A: < 5 nM

Q: Find the recorded IC50 belonging to CC1(CC(N)=O)CCN(c2ccc(S(=O)(=O)N3CCC(Nc4ccc(C(F)(F)F)cn4)CC3)cc2)CC1 and report it.
A: 5 to 100 nM
